- Target or test system: T1, full-length SUMO-CtBP2 (human, UniProt P56545 1-445)
- T1 construct: Named SUMO-CtBP2 in the pull-downs; also called SUMO-CtBP2-FL; CtBP2-FL; source: E. coli Rosetta 2 (DE3), purified (Ni-NTA); not shown: SUMO, N-terminal, kept
- Assay comment: pull-down; FLAG-tagged G9a (or GLP) fragments immobilised on anti-FLAG resin, incubated with CtBP protein 2 h at 4 °C; 50 mM Tris-HCl pH 8.0, 150 mM NaCl, 2 mM DTT, 0.1% NP-40; eluted with FLAG peptide, SDS-PAGE
- Test conditions: both partners purified
Readout type: binding result

binder="NKEGDTAWDLTPERSDVWFALQLNRKLRLGVGN (domain or fragment, human, UniProt Q96KQ7 881-913, looked up, also called Pre-SET fragment; G9a Pre-SET domain; not shown: SUMO, N-terminal, kept; FLAG, C-terminal, kept) [SUMO-G9a (881–913)-FLAG]" val=binds
binder="NKEGDTAWDLRPERSDVWFALQLNRKLRLGVGN (domain or fragment, human, UniProt Q96KQ7 881-913, looked up, source: E. coli Rosetta 2 (DE3), purified; not shown: SUMO, N-terminal, kept; FLAG, C-terminal, kept) [SUMO-G9a^881–913-FLAG T891R]" val=binds
binder="NKEGDTAWDLTEERSDVWFALQLNRKLRLGVGN (domain or fragment, human, UniProt Q96KQ7 881-913, looked up, source: E. coli Rosetta 2 (DE3), purified; not shown: SUMO, N-terminal, kept; FLAG, C-terminal, kept) [SUMO-G9a^881–913-FLAG P892E]" val=binds
